Where these numbers come from: the supplement of paper PMC10567573

B1: VPS39 (parent)
chain: TTLLKCYLHTNVALVAPLLRLENN

Variants of: B1
assay.explanation: protein stability index of a GFP-peptide fusion (GPS, HEK-293T) (PSI 1-6); higher = more stable;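 also: lentivirally expressed fusions sorted by FACS into six bins by GFP to DsRed ratio, PSI derived from sequencing read proportions per bin multiplied by bin number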
condition.label: c terminus: a fixed tail appended
experimental.readout: protein stability index
Give the value as a plain number.

* TTLLKCYLHTHVALVAPLLRLENN | 3.65
* TTLLKCYLHTNVALVAPTLRLENN | 2.51
* TTLLKCYVHTNVALVAPLLRLENN | 2.7
* TTLLKCYLHTNVALVAPLLRKENN | 1.74
* TTLLKCYLHTNVALVAPLERLENN | 2.02
* TTTLKCYLHTNVALVAPLLRLENN | 2.58
* TTLLKCYLHTNVATVAPLLRLENN | 2.5
* TTLLKCYLHTNVALVAPLLRWENN | 2.05
* TTLLKCYLHTNVAAVAPLLRLENN | 2.83
* TTWLKCYLHTNVALVAPLLRLENN | 3.19

Please fill in: protein stability index reported for TTLLHCYLHTNVALVAPLLRLENN = 2.48

Please fill in: protein stability index reported for TTLLKCYLHTNTALVAPLLRLENN = 3.04

Please fill in: protein stability index reported for TTLLKCYLHTNVALVAPLLRLENC = 3.2
